Measured IC50 accompanies every entry in the list below.
Biological target: Genome polyprotein (dengue virus type 2, UniProt P29990)
Sequence (P29990 2492-3391 limits assumed): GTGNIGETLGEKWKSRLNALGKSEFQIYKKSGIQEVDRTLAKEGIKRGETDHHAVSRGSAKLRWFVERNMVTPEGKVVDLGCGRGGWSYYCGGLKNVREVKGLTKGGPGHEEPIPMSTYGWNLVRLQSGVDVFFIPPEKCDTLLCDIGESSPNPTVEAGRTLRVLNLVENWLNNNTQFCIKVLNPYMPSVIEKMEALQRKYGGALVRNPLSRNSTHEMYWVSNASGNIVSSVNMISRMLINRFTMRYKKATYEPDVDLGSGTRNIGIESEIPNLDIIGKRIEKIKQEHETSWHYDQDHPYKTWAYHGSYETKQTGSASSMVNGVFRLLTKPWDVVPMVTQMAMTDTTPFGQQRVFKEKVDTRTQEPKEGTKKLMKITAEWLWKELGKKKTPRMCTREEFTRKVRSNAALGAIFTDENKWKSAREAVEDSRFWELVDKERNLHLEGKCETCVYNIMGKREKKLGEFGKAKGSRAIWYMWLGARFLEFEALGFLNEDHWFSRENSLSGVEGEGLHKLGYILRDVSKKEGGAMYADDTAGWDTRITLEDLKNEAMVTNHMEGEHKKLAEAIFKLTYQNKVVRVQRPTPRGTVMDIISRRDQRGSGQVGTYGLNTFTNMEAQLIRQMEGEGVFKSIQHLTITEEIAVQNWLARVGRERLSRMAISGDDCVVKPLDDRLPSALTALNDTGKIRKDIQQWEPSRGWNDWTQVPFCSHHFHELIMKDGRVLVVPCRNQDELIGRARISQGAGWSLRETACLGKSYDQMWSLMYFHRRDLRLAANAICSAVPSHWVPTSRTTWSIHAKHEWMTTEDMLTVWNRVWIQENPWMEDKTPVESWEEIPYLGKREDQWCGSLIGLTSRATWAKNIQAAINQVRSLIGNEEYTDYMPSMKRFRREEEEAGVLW
Experiment: Dengue-2 NS5 methyltransferase inhibitors, primary screen, biochemical, confirmation dose response (AID 588689)
Assay type: functional
Calls of active or inactive are those of the source. How the calls were made is not given here.

A selection of reference data follows.
{"compound": "Cc1cccc(N/N=C/c2ccc(O)c(O)c2O)c1", "IC50": "32.6 µM (active)"}
{"compound": "COc1ccc(C(=O)/C=C/c2ccc(-c3ccccc3)cc2)cc1CSCC(=O)O", "IC50": "37.7 µM (active)"}
{"compound": "NC(=O)C1CCN(C2=C(Cl)C(=O)c3ccccc3C2=O)CC1", "IC50": "26 µM (active)"}
{"compound": "CN1C(=O)C(=Cc2ccccc2Oc2ccc(Cl)cc2)C(=O)N(C)C1=O", "IC50": "41.5 µM (active)"}
{"compound": "Cc1ccc(-c2ccc(/C=C3\\C(=O)ON=C3c3ccccc3)o2)c([N+](=O)[O-])c1", "IC50": "11.1 µM (active)"}
{"compound": "Cc1ccc2c(c1)c(=O)c1c3n2CCN(C(=O)CCl)C3CC1 (centres undefined)", "IC50": "> 100 µM (active)"}
{"compound": "Cc1ccc(SCc2n[nH]c3c2C(c2ccc(C)o2)C(C#N)=C(N)O3)cc1 (centres undefined)", "IC50": "> 100 µM (active)"}
{"compound": "O=C1C(Cl)=C(N2CCOCC2)C(=O)N1c1ccc(Br)cc1", "IC50": "36.2 µM (active)"}

Moving on to another compound below.
The reported IC50 of the compound `Cc1ccc(NC(=O)c2cccc(C(=O)Nc3ccc(C)cc3C(=O)O)c2)c(C(=O)O)c1` was 22.3 µM (active)
